Data origin, for the record: PubChem BioAssay AID2060612

# Test system: 565232-114-T-J1-PDC complex spheroid viability;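 further: spheroids exposed to compounds for 7 days before readout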
# assay_explanation: Anticancer human tumor 565232-114-T-J1-PDC patient-derived bladder carcinoma cell line growth inhibition [CLK]
# test_parameters: curve of first compound; second compound 3.16 µM
measured_property: IC50

compound	reading
CC(Nc1ccc2c(c1)OCCn1cc(N3C(=O)OCC3C(F)F)nc1-2)C(N)=O (stereo unspecified) + CNC(=O)c1ccc(Nc2nc(OC3CCCC3)c3c(-c4ccc5nc(C)oc5c4)c[nH]c3n2)c(OC)c1	< 0.0316 µM
COc1cccc2c1C(=O)c1c(O)c3c(c(O)c1C2=O)CC(O)(C(=O)CO)CC3OC1CC(N)C(O)C(C)O1 (stereo unspecified) + CNC(=O)c1ccc(Nc2nc(OC3CCCC3)c3c(-c4ccc5nc(C)oc5c4)c[nH]c3n2)c(OC)c1	< 0.0316 µM
CC(C)CC(NC(=O)C(Cc1ccccc1)NC(=O)c1cnccn1)B(O)O (stereo unspecified) + CNC(=O)c1ccc(Nc2nc(OC3CCCC3)c3c(-c4ccc5nc(C)oc5c4)c[nH]c3n2)c(OC)c1	< 0.000949 µM
C=CC(=O)Nc1cc(Nc2nccc(-c3cn(C)c4ccccc34)n2)c(OC)cc1N(C)CCN(C)C + CN1CCN(c2cc(C(=O)Nc3cc4cc(-c5cnn(C)c5)ccc4cn3)ccn2)CC1	< 0.000949 µM
Nc1ccccc1NC(=O)c1ccc(CNC(=O)OCc2cccnc2)cc1 + CNC(=O)c1ccc(Nc2nc(OC3CCCC3)c3c(-c4ccc5nc(C)oc5c4)c[nH]c3n2)c(OC)c1	< 0.0316 µM
COc1c(OCCCN2CCOCC2)ccc2c3n(c(=NC(=O)c4cnc(N)nc4)nc12)CCN3 + CNC(=O)c1ccc(Nc2nc(OC3CCCC3)c3c(-c4ccc5nc(C)oc5c4)c[nH]c3n2)c(OC)c1	< 0.00316 µM
CC1(C)CCC(CN2CCN(c3ccc(C(=O)NS(=O)(=O)c4ccc(NCC5CCOCC5)c([N+](=O)[O-])c4)c(Oc4cnc5[nH]ccc5c4)c3)CC2)=C(c2ccc(Cl)cc2)C1 + CNC(=O)c1ccc(Nc2nc(OC3CCCC3)c3c(-c4ccc5nc(C)oc5c4)c[nH]c3n2)c(OC)c1	< 0.0316 µM
Nc1ccn(C2OC(CO)C(O)C2(F)F)c(=O)n1 (stereo unspecified) + CNC(=O)c1ccc(Nc2nc(OC3CCCC3)c3c(-c4ccc5nc(C)oc5c4)c[nH]c3n2)c(OC)c1	< 0.0316 µM
Cn1ncnc1[C@H]1c2n[nH]c(=O)c3cc(F)cc(c23)N[C@@H]1c1ccc(F)cc1 + CN1CCN(c2cc(C(=O)Nc3cc4cc(-c5cnn(C)c5)ccc4cn3)ccn2)CC1	< 0.000316 µM
CC(C)CC(NC(=O)C(Cc1ccccc1)NC(=O)c1cnccn1)B(O)O (stereo unspecified) + CN1CCN(c2cc(C(=O)Nc3cc4cc(-c5cnn(C)c5)ccc4cn3)ccn2)CC1	< 0.000949 µM
O=c1[nH]cc(F)c(=O)[nH]1 + CNC(=O)c1ccc(Nc2nc(OC3CCCC3)c3c(-c4ccc5nc(C)oc5c4)c[nH]c3n2)c(OC)c1	< 0.0316 µM
